Property: Papp; scope: individual compounds
# test_description: CaCo-2 permeability of isoflavones in a Red clover extract
# assay_setup: human
State the answer as a number, implicitly in ×10⁻⁶ cm/s.

Some entries whose results are on file:
>>> data_value("O=c1c(-c2ccc(O)cc2)coc2cc(O)cc(O)c12")
27.5
>>> data_value("O=c1c(-c2ccc(O)cc2)coc2cc(O[C@@H]3O[C@H](CO)[C@@H](O)[C@H](O)[C@H]3O)ccc12")
0.536
>>> data_value("O=c1c(-c2ccc(O)cc2)coc2cc(O[C@@H]3O[C@H](CO)[C@@H](O)[C@H](O)[C@H]3O)cc(O)c12")
0.346
>>> data_value("COc1ccc(-c2coc3cc(O)ccc3c2=O)cc1")
22

Input: Return reported Papp; argument: COc1ccc(-c2coc3cc(O[C@@H]4O[C@H](CO)[C@@H](O)[C@H](O)[C@H]4O)ccc3c2=O)cc1
Output: 0.122

* * *

Property: fraction unbound; scope: individual molecules
# test_description: Plasma protein binding of absorbable aglycones
# Type: in vitro ADME

Some entries whose results are on file:
>>> data_value("O=c1c(-c2ccc(O)cc2)coc2cc(O)ccc12")
"~0.2"
>>> data_value("Oc1ccc([C@H]2COc3cc(O)ccc3C2)cc1")
"< 0.03"
>>> data_value("COc1ccc(-c2coc3cc(O)ccc3c2=O)cc1")
"< 0.03"

Turning now to a further molecule:
Input: Return reported fraction unbound; argument: O=c1c(-c2ccc(O)cc2)coc2cc(O)cc(O)c12
Output: < 0.03
